Biological target: Escherichia coli LpxH (UDP-2,3-diacylglucosamine hydrolase) (Escherichia coli (strain K12))
Sequence (P43341 whole entry): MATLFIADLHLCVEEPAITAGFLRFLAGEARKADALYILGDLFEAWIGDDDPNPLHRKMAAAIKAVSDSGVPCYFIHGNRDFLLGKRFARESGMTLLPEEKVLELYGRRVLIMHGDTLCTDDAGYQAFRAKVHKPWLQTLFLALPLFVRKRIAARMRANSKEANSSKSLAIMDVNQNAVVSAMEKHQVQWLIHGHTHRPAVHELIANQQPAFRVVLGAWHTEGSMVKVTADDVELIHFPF
Experiment: 50% Inhibitory Concentration (IC50) to LpxH, UMP/CMP-Glo Glycosyltransferase Assay kit
So basically: is IC50 under 10 nM? Then 1. Not under? Then -1.

[
  {
    "compound": "O=C1O[C@H]2CCNC[C@H]2N1c1ccc(S(=O)(=O)N2CCN(c3cc(C(F)(F)c4ccccc4)cc(Cl)n3)CC2)cc1 [Example 87]",
    "cat": -1
  },
  {
    "compound": "O=C1CC(N2CCN[C@H](CO)C2)CN1c1ccc(S(=O)(=O)N2CCN(c3cc(C(F)(F)F)cc(Cl)n3)CC2)cc1 (some centres unmarked) [Example 53]",
    "cat": 1
  },
  {
    "compound": "N[C@@H]1CC(=O)N(c2ccc(S(=O)(=O)N3CCN(c4cc(C(F)(F)C5C6COCC65)cc(Cl)n4)CC3)cc2)C1 (some centres unmarked) [Example 101]",
    "cat": -1
  },
  {
    "compound": "N[C@H]1CN(c2ccc(S(=O)(=O)N3CCN(c4cc(C(F)(F)F)cc(Cl)n4)CC3)cc2)C1=O [Example 7]",
    "cat": -1
  },
  {
    "compound": "NC1CC(=O)N(c2ccc(S(=O)(=O)N3CCN(c4cc(C(F)(F)C5CCOC5)cc(Cl)n4)CC3)cc2)C1 (centres unmarked) [Example 96]",
    "cat": 1
  }
]
